Provide the recorded pEC50 for the entries that follow.
SYSTEM_NAME: T1, GIP Receptor (Homo sapiens, UniProt P48546)
T1 construct: host or cells: HEK293T
T1 sequence (P48546 22-466): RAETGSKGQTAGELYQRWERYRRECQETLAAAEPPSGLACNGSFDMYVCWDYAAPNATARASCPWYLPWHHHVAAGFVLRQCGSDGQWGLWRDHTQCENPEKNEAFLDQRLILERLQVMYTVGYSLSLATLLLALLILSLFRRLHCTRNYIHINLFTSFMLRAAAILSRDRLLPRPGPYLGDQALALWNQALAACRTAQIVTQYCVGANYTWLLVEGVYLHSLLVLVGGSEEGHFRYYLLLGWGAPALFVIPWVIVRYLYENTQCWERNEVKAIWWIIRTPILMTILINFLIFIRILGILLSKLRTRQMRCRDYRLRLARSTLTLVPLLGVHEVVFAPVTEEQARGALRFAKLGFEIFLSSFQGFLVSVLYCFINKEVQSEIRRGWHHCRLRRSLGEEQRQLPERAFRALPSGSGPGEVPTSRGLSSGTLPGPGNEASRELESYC
METHOD_NOTES: GIP receptor-mediated bioluminescence in HEK293T cells with chimeric promiscuous G protein (FIG. 5, Table II)
Assay type: cell-based
EXPERIMENTAL_CONDITIONS: HEK293T cells, GIP Receptor + promiscuous G protein; luminescence vs GIP concentration
One number for each entry, as −log10 of the molar value.

# batch size: 2; output pEC50 per entry
1. Mt-aequorin: Mitochondrial Wild-type Aequorin (mt-Aequorin), SEQ ID NO:6 (protein, listed as Aequorea victoria) MSVLTPLLLRGLTGSARRLPVPRAKIHSLPPEGKLTSDFDNPRWIGRHKHMFNFLDVNHNGKISLDEMVYKASDIVINNLGATPEQAKRHKDAVEAFFGGAGMKYGVETDWPAYIEGWKKLATDELEKYAKNEPTLIRIWGDALFDIVDKDQNGAITLDEWKAYTKAAGIIQSSEDCEETFRVCDIDESGQLDVDEMTRQHLGFWYTMDPACEKLYGGAVP
2. Cyto-clytin K168E: K168E modified Clytin amino acid sequence, SEQ ID NO:11; cytosolic (protein) MADTASKYAVKLRPNFDNPKWVNRHKFMFNFLDINGDGKITLDEIVSKASDDICAKLGATPEQTKRHQDAVEAFFKKIGMDYGKEVEFPAFVDGWKELANYDLKLWSQNKKSLIRDWGEAVFDIFDKDGSGSISLDEWKAYGRISGICSSDEDAEKTFKHCDLDNSGELDVDEMTRQHLGFWYTLDPNADGLYGNFVP

output:
[7.95, 8.10]

These entries and their values trace back to patent US20110081661A1.
